The reported measurements were obtained from paper PMC5540273.

Catalogue of %Inh values
# Test system: RSK3(Kin.Dom.2-C-terminal);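 note: KINOMEscan kinase panel screen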
# Construct: gene RPS6KA2
# Settings: concentration: 1 μM, replicates: in singlicate; n = 1
The reply should contain only the number, in %.

Cc1cc(NCC(c2ccccc2)c2ccccc2)nc(NCc2ccc(C(F)(F)F)cc2)n1; 1
COc1cc(Nc2nccc(N3CCC(NC(=O)Nc4cc(C)ccc4C)C3)n2)cc(OC)c1OC (stereo not shown); 0

Request: Determine its reported %Inh: CC(C)(C)c1ccc(C(=O)Nc2cn3cc(Cl)ccc3n2)cc1
Response: 23

Request: Report %Inh for Nc1ncnc2[nH]c(-c3ccccc3)nc12
Response: 0

Request: Write down %Inh measured for item COc1cc2nccc(Nc3ccc(NC(=O)c4ccc(C)cc4)c(O)c3)c2cc1OC.Cl
Response: 0

Request: Consider the compound Cl.Oc1ccc(-c2nc(-c3ccccc3)[nH]c2-c2ccncc2)cc1 and give its recorded %Inh.
Response: 8

Request: Identify measured %Inh corresponding to O=C(Nc1n[nH]c2cc(-c3cccc(F)c3F)ccc12)C1CC1
Response: 0

Request: Identify %Inh associated with the compound Cn1ccc2ncnc(Oc3cccc(C(=O)Nc4ccccc4)c3)c21
Response: 13

Request: Specify measured %Inh for Cc1ccc(-c2cc(-c3c[nH]nc3-c3ccccn3)ccn2)cc1 .
Response: 25

Request: Tell us which %Inh value is on record for CCn1c(-c2cccnc2O)nc2cnccc21
Response: 13
